- Measurement description: Comparative pharmacokinetics study in rats
- Type: in vivo, SD male rats
- Assay setup: rat, oral 10 mg/kg
- Description: Experimental Example 2: Comparative Pharmacokinetics Study in Rats SD male rats were used as the test animals in this study. The drug concentrations in plasma of the rats by intravenous or oral administration of test compounds WX017, WX047, WX079, WX088 and reference compound at different time points were quantitatively determined by LC/MS/MS, which were used to evaluate the pharmacokinetic profile of the two test drugs in rats. […]
Readout label: Area Under a Curve (0-inf/0-last) (µM·h)

[[record]]
compound = "CCCCOCCOc1ccc(-c2ccc(OC)c(/C=C/C(=O)Nc3ccc([S@+]([O-])Cc4c(C)ncn4CC)cc3)c2)cc1"
result_number = 404.142


a = CCCCOCCOc1ccc(-c2ccc(OCC)c(/C=C/C(=O)Nc3ccc([S@+]([O-])Cc4c(C)ncn4CC)cc3)c2)cc1
b = CCCCOCCOc1ccc(-c2cc(F)c(OC)c(/C=C/C(=O)Nc3ccc([S@+]([O-])Cc4c(C)ncn4CC)cc3)c2)cc1
c = CCCCOCCOc1ccc(-c2ccc3c(c2)/C=C(/C(=O)Nc2ccc([S@@+]([O-])Cc4cncn4CCC)cc2)CCCN3CC(C)C)cc1 [(Cenicriviroc), Cenicriviroc, reference compound]
d = CCCCOCCOc1ccc(-c2ccc(OC)c(/C=C/C(=O)Nc3ccc([S@@+]([O-])Cc4cncn4CCC)cc3)c2)cc1
Qu. Place the items in sequence of falling Area Under a Curve (0-inf/0-last). Enter labels, ranked according to the request.
Ans. d, a, b, c
